target_or_test_system: T1, QAEKLVEGKSQIQ (not fully specified)
T1 construct: member of the group m41; the text speaks of glycine substitution, the sheet prints alanine
T1 peptide: QAEKLVEGKSQIQ
experimental_protocol: ELISA, immobilized peptide QAEKLVEGKSQIQ
No end group written: not given here.
Returns one of y or n; y when OD450 absorbance is >= 0.8.

Recorded results for 3 binders are shown here.
# binder, group_label
rows = [
    ("MM14 (antibody, IgG2b, V domains shown) VH: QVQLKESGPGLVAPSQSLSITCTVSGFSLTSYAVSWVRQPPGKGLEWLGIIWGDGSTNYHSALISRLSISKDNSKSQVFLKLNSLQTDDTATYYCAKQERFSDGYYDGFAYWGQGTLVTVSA VL: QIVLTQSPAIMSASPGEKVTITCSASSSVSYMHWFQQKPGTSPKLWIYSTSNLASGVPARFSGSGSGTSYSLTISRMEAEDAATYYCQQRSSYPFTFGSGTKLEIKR", "n"),
    ("MM07 (antibody, V domains shown, The VH and VL begin with what look like leader peptides (MDWLW..., MVSSAQ...)) VH: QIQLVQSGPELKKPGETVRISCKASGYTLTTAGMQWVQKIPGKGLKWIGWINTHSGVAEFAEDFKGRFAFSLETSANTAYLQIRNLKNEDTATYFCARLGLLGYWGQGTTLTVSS VL: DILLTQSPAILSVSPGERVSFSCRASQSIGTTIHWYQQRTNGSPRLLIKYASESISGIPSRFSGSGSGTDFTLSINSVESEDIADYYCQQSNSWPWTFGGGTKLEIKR", "y"),
    ("MM08 (antibody, IgG1, V domains shown) VH: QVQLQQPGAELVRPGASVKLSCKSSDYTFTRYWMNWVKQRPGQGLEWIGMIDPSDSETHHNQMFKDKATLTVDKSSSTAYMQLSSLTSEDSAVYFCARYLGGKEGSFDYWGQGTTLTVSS VL: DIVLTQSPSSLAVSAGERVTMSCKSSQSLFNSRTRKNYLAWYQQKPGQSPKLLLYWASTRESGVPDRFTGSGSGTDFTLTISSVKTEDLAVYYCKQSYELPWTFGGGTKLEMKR", "n"),
]

Next:
Answer whether OD450 absorbance of MM02 (antibody, IgG2b, V domains shown) VH: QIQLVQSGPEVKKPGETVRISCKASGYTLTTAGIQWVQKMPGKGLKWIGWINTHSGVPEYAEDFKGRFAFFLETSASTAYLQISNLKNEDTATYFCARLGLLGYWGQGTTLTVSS VL: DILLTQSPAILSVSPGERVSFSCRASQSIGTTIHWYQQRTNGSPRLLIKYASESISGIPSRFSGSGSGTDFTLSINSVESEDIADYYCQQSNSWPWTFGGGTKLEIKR is greater than or equal to 0.8.
n
